System: NCI-H322M multicellular tumor spheroids, viability (% test/control)
Experiment: Anticancer human tumor NCI-H322M cell line growth inhibition
Settings: second compound 0.003 µM; first compound 0.03 µM; hits give low values

| Compound | Unit Label | viability, T/C |
| --- | --- | --- |
| Cn1ncnc1[C@H]1c2n[nH]c(=O)c3cc(F)cc(c23)N[C@@H]1c1ccc(F)cc1 + CC[C@@]1(O)C(=O)OCc2c1cc1n(c2=O)Cc2cc3c(CN(C)C)c(O)ccc3nc2-1 | % | 87.1 |
| Cc1sc2c(c1C)C(c1ccc(Cl)cc1)=NC(CC(=O)Nc1ccc(O)cc1)c1nnc(C)n1-2 (stereo unspecified) + COc1cc2c(cc1O)CCNC21CSC2c3c(OC(C)=O)c(C)c4c(c3C(COC1=O)N1C(O)C3Cc5cc(C)c(OC)c(O)c5C(C21)N3C)OCO4 | % | 6.99 |
| CNCc1ccc(-c2cc(-c3nc(-c4ccc(S(=O)(=O)C(C)C)cc4)cnc3N)on2)cc1 + COc1cc2c(cc1O)CCNC21CSC2c3c(OC(C)=O)c(C)c4c(c3C(COC1=O)N1C(O)C3Cc5cc(C)c(OC)c(O)c5C(C21)N3C)OCO4 | % | 10.9 |
| Cn1ncnc1[C@H]1c2n[nH]c(=O)c3cc(F)cc(c23)N[C@@H]1c1ccc(F)cc1 + COc1cc2c(cc1O)CCNC21CSC2c3c(OC(C)=O)c(C)c4c(c3C(COC1=O)N1C(O)C3Cc5cc(C)c(OC)c(O)c5C(C21)N3C)OCO4 | % | 9.48 |
| Cc1sc2c(c1C)C(c1ccc(Cl)cc1)=NC(CC(=O)Nc1ccc(O)cc1)c1nnc(C)n1-2 (stereo unspecified) + CC[C@@]1(O)C(=O)OCc2c1cc1n(c2=O)Cc2cc3c(CN(C)C)c(O)ccc3nc2-1 | % | 139 |
| CNCc1ccc(-c2cc(-c3nc(-c4ccc(S(=O)(=O)C(C)C)cc4)cnc3N)on2)cc1 + CC[C@@]1(O)C(=O)OCc2c1cc1n(c2=O)Cc2cc3c(CN(C)C)c(O)ccc3nc2-1 | % | 93.3 |

###

Tested on: NCI-H322M multicellular tumor spheroids, viability (% test/control)
Assay: Anticancer human tumor NCI-H322M cell line growth inhibition; active means viability on the fitted dose curve at most 10% of control; inactive means the rest
Details: second compound 0.000949 µM; first compound 10 µM
Experimental: Multicellular complex tumor spheroid response to DNA repair inhibitors in combination with DNA-damaging drugs This study explores the anticancer activities of DNA-damaging drugs and inhibitors of DNA damage repair, both as single agents and in combinations. […] Twenty-six patient-derived or established malignant cell lines were evaluated representing sarcoma, melanoma, small cell lung cancer (SCLC), non-small cell lung cancer (NSCLC), as well as bladder, ovarian and pancreatic cancers. […]
Outcome codes: active, inactive

| Molecule | Answer Label |
| --- | --- |
| COc1ccc([C@@H](O)c2cc(-c3ncnc4cc(N5CCOCC5)ccc34)c(F)cc2Cl)nn1 + COc1cc2c(cc1O)CCNC21CSC2c3c(OC(C)=O)c(C)c4c(c3C(COC1=O)N1C(O)C3Cc5cc(C)c(OC)c(O)c5C(C21)N3C)OCO4 | active |
| COc1cc(C)[nH]c(=O)c1CN1CCc2c(Cl)cc(C(OC)C3COC3)c(Cl)c2C1=O (centres undefined) + COc1cc2c(cc1O)CCNC21CSC2c3c(OC(C)=O)c(C)c4c(c3C(COC1=O)N1C(O)C3Cc5cc(C)c(OC)c(O)c5C(C21)N3C)OCO4 | inactive |
| [2H]c1nc(C)nc([2H])c1-c1cc(NC[C@@H](C)c2cccc3c(C(=O)NC)ccnc23)ncn1 + COc1cc2c(cc1O)CCNC21CSC2c3c(OC(C)=O)c(C)c4c(c3C(COC1=O)N1C(O)C3Cc5cc(C)c(OC)c(O)c5C(C21)N3C)OCO4 | inactive |
| CC1COCCN1c1cc(-c2ccnn2C)c2ccnc(-c3ccn[nH]3)c2n1 (centres undefined) + COc1cc2c(cc1O)CCNC21CSC2c3c(OC(C)=O)c(C)c4c(c3C(COC1=O)N1C(O)C3Cc5cc(C)c(OC)c(O)c5C(C21)N3C)OCO4 | inactive |

###

Tested on: NCI-H322M multicellular tumor spheroids, viability (% test/control)
Assay: Anticancer human tumor NCI-H322M cell line growth inhibition;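 further: spheroids exposed to compound for seven days before readout; 100% = DMSO vehicle control wells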
Conditions: second compound 0.03 µM; first compound 0.0316 µM; hits give low values

| Molecule | Experimental System | viability, T/C / % |
| --- | --- | --- |
| CC(C)n1c(=O)n(C)c2cnc3cc(F)c(-c4ccc(OCCCN5CCCCC5)nc4)cc3c21 + CC[C@@]1(O)C(=O)OCc2c1cc1n(c2=O)Cc2cc3c(CN(C)C)c(O)ccc3nc2-1 | NCI-H322M multicellular tumor spheroids, viability (% test/control) | 67.2 |
| [2H]c1nc(C)nc([2H])c1-c1cc(NC[C@@H](C)c2cccc3c(C(=O)NC)ccnc23)ncn1 + CC[C@@]1(O)C(=O)OCc2c1cc1n(c2=O)Cc2cc3c(CN(C)C)c(O)ccc3nc2-1 | NCI-H322M multicellular tumor spheroids, viability (% test/control) | 77.2 |
| Cc1cc(C)c(CNC(=O)c2cc(-c3ccc(CN4CCOCC4)cc3)cc3c2cnn3C2CCCC2)c(=O)[nH]1 + CC[C@@]1(O)C(=O)OCc2c1cc1n(c2=O)Cc2cc3c(CN(C)C)c(O)ccc3nc2-1 | NCI-H322M multicellular tumor spheroids, viability (% test/control) | 77.3 |

###

System: NCI-H322M multicellular tumor spheroids, viability (% test/control)
Test: Anticancer human tumor NCI-H322M cell line growth inhibition;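 further: spheroids exposed to compound for seven days before readout; 100% = DMSO vehicle control wells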
Conditions: second compound 10 µM; first compound 0.0316 µM; hits give low values
Response field label takes 1 (yes) when viability, T/C is strictly below 90% and 0 (no) in all other cases.

| Molecule | Experimental System | Answer Label |
| --- | --- | --- |
| [2H]c1nc(C)nc([2H])c1-c1cc(NC[C@@H](C)c2cccc3c(C(=O)NC)ccnc23)ncn1 + Cn1nnc2c(C(N)=O)ncn2c1=O | NCI-H322M multicellular tumor spheroids, viability (% test/control) | 1 (yes) |
| COc1ccc([C@@H](O)c2cc(-c3ncnc4cc(N5CCOCC5)ccc34)c(F)cc2Cl)nn1 + Cn1nnc2c(C(N)=O)ncn2c1=O | NCI-H322M multicellular tumor spheroids, viability (% test/control) | 0 (no) |
| CC1COCCN1c1cc(-c2ccnn2C)c2ccnc(-c3ccn[nH]3)c2n1 (stereo unspecified) + Cn1nnc2c(C(N)=O)ncn2c1=O | NCI-H322M multicellular tumor spheroids, viability (% test/control) | 1 (yes) |
| CC(C)n1c(=O)n(C)c2cnc3cc(F)c(-c4ccc(OCCCN5CCCCC5)nc4)cc3c21 + Cn1nnc2c(C(N)=O)ncn2c1=O | NCI-H322M multicellular tumor spheroids, viability (% test/control) | 1 (yes) |
| COc1cc(C)[nH]c(=O)c1CN1CCc2c(Cl)cc(C(OC)C3COC3)c(Cl)c2C1=O (stereo unspecified) + Cn1nnc2c(C(N)=O)ncn2c1=O | NCI-H322M multicellular tumor spheroids, viability (% test/control) | 0 (no) |

###

molecules and their reported viability, T/C
System: NCI-H322M multicellular tumor spheroids, viability (% test/control)
Test: Anticancer human tumor NCI-H322M cell line growth inhibition;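 further: spheroids exposed to compound for seven days before readout; 100% = DMSO vehicle control wells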
Details: second compound 0.3 µM; first compound 0.0949 µM; hits give low values

| Molecule | Experimental System | Unit Label | viability, T/C |
| --- | --- | --- | --- |
| O=C(c1cc(Cc2n[nH]c(=O)c3ccccc23)ccc1F)N1CCN(C(=O)C2CC2)CC1 + CC[C@@]1(O)C(=O)OCc2c1cc1n(c2=O)Cc2cc3c(CN(C)C)c(O)ccc3nc2-1 | NCI-H322M multicellular tumor spheroids, viability (% test/control) | % | 42.5 |
| Cc1sc2c(c1C)C(c1ccc(Cl)cc1)=NC(CC(=O)Nc1ccc(O)cc1)c1nnc(C)n1-2 (centres undefined) + CC[C@@]1(O)C(=O)OCc2c1cc1n(c2=O)Cc2cc3c(CN(C)C)c(O)ccc3nc2-1 | NCI-H322M multicellular tumor spheroids, viability (% test/control) | % | 90.2 |
| CNCc1ccc(-c2cc(-c3nc(-c4ccc(S(=O)(=O)C(C)C)cc4)cnc3N)on2)cc1 + CC[C@@]1(O)C(=O)OCc2c1cc1n(c2=O)Cc2cc3c(CN(C)C)c(O)ccc3nc2-1 | NCI-H322M multicellular tumor spheroids, viability (% test/control) | % | 59.1 |
| Cn1ncnc1[C@H]1c2n[nH]c(=O)c3cc(F)cc(c23)N[C@@H]1c1ccc(F)cc1 + CC[C@@]1(O)C(=O)OCc2c1cc1n(c2=O)Cc2cc3c(CN(C)C)c(O)ccc3nc2-1 | NCI-H322M multicellular tumor spheroids, viability (% test/control) | % | 49.2 |

###

Listed below: viability, T/C values for each entry.
System: NCI-H322M multicellular tumor spheroids, viability (% test/control)
Assay: Anticancer human tumor NCI-H322M cell line growth inhibition;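 further: spheroids exposed to compound for seven days before readout; 100% = DMSO vehicle control wells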
Details: second compound 0.003 µM; first compound 3.16 µM; hits give low values

| Compound | viability, T/C (%) |
| --- | --- |
| COc1ccc([C@@H](O)c2cc(-c3ncnc4cc(N5CCOCC5)ccc34)c(F)cc2Cl)nn1 + COc1cc2c(cc1O)CCNC21CSC2c3c(OC(C)=O)c(C)c4c(c3C(COC1=O)N1C(O)C3Cc5cc(C)c(OC)c(O)c5C(C21)N3C)OCO4 | 1.98 |
| Cc1cc(C)c(CNC(=O)c2cc(-c3ccc(CN4CCOCC4)cc3)cc3c2cnn3C2CCCC2)c(=O)[nH]1 + COc1cc2c(cc1O)CCNC21CSC2c3c(OC(C)=O)c(C)c4c(c3C(COC1=O)N1C(O)C3Cc5cc(C)c(OC)c(O)c5C(C21)N3C)OCO4 | 2.7 |

Data provenance: PubChem BioAssay AID1845211
